Can you tell me Ki for the items I'm about to list?
Target sequence: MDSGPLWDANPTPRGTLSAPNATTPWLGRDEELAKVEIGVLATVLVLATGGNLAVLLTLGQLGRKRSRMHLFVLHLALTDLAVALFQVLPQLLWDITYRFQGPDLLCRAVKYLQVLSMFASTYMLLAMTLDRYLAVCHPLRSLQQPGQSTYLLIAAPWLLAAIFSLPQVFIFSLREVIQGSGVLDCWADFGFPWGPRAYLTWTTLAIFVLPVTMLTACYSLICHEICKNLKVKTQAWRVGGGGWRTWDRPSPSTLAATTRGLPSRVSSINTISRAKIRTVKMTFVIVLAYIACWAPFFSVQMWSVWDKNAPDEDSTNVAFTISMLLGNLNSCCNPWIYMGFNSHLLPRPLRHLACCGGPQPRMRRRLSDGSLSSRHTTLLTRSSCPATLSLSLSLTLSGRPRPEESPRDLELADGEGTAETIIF
Counter-ions that a name gives are not always drawn.

Need Ki, item COc1ccc(S(=O)(=O)N2C(=O)C(NC(=O)N3CCN(C4CCN(C)CC4)CC3)(c3ccccc3OC)c3cc(OC)ccc32)c(OC)c1 (stereo not drawn) [Example 16, dihydrochloride]
< 100 nM

And COc1ccc(S(=O)(=O)N2C(=O)C(OC(=O)N3CCN(C4CCN(C)CC4)CC3)(c3ccccc3OC)c3cc(C)ccc32)c(OC)c1 (stereo not drawn) [Example 17, dihydrochloride] ?
< 100 nM

Do the same for COc1ccc(S(=O)(=O)N2C(=O)C(OC(=O)N3CCN(C4CCN(C)CC4)CC3)(c3ccccc3OC(C)C)c3cc(OC)ccc32)c(OC)c1 (stereo not drawn) [Example 24, dihydrochloride] please
< 100 nM

Recorded values, source patent US7951807B2.
